Recorded values, source the supplement of paper PMC8728848.

Each entry below lists one item and its recorded glycan array binding signal (z-score) value.
Biological target: Neu5Ac9Ac(a2-6)Gal(b1-4)GlcNAc
Test: glycan array binding signal (z-score within array); higher = stronger binding
Details: glycan notation: IUPAC condensed, linker removed
Only a selection was taken, and the strongest signals are over-represented in it overall.
observed_property: glycan array binding signal (z-score)

>>> observed_value("SAOUHSC 02783 (Staphylococcus aureus), Q5HD69 (protein) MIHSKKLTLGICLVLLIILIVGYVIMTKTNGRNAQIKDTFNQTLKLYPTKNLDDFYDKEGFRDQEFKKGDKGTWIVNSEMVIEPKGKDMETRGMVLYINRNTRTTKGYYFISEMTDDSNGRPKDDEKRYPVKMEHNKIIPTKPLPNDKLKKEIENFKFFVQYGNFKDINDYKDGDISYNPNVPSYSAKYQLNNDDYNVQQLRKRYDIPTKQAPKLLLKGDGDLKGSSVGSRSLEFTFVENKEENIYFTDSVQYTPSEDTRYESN")
1.65
>>> observed_value("Fap1 (Streptococcus parasanguis) (protein) KATSKGTEEKQDSVRENLDKMISEAEVLNDMAARKLITLDAEQQLELMKSLVATQSQLEATKNLIGDPNATVADLQIAYTTLGNNTQALGNELIKLNPNGQIYAVLNNTEASRAATLRSTTTGTKTTFTISDFSNGGTQYYWAGGNANNLKNPISSISAVYDSATGKISWTVEYDPTTILKSPALKTLKTYTGIYIDTSSDSKLSTPTNVLIDGAATNPVTNFYGNGSKGIEYVSKGTTKGVTKHTITFDTAFSGRANDLADLEIKMLAATTLSDPHFYEDGSKGNYGRYNGQTAPYVIANDSGTAIGGYQVSGVNADSIPSDTT")
0.638
>>> observed_value("MIC1 (Neospora caninum), Q8WRS0 (protein) AGAKTYGEASQPSASARSLQGALDTWCQEVFKKLCDDGYSKMCIPANQVVARQGLGRKDQQKLVWRCYDSAAFLAEGDENNVLSCVDDCGVSIPCPGGVDRDNSTHATRHDELSQLIKEGVVRYCSGFQAAANSYCNKRYPGTVARKSKGFGHKEPVKWRCYKPESLLFSVFSECVSNCGTTWSCPGGRLGTATNLDKKHFTDESGILQALTSVPKACPVGLVCLPRDQNPPACLDDNGNVPE")
-0.428
>>> observed_value("BabA (Helicobacter pylori), O52269_HELPY (protein) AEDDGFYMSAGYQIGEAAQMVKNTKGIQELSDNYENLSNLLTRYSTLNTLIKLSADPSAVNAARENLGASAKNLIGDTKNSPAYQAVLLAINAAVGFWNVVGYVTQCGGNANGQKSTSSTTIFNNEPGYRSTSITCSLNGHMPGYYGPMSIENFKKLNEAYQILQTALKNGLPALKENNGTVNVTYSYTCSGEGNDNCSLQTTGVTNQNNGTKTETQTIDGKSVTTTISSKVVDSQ")
-0.224
